Source of measurements: ChEMBL document CHEMBL1129968

Molecular target: Sodium-dependent dopamine transporter (Rattus norvegicus)
Assay: Compound was evaluated for its ability to displace [3H]WIN-35428 from dopamine transporter in rat caudate putamen tissue
Type: tissue-based
readoutKind: Ki (nM)
Output spec: scalar in nM, unitless text.

Prompt: Ki of CN1C2CCC1C(/C=C/CO)C(c1ccccc1)C2 (stereo unspecified) on Sodium-dependent dopamine transporter (Rattus norvegicus)?
Response: 26

----------
Target: Sodium-dependent dopamine transporter (Rattus norvegicus, UniProt P23977)
Sequence (P23977 whole entry): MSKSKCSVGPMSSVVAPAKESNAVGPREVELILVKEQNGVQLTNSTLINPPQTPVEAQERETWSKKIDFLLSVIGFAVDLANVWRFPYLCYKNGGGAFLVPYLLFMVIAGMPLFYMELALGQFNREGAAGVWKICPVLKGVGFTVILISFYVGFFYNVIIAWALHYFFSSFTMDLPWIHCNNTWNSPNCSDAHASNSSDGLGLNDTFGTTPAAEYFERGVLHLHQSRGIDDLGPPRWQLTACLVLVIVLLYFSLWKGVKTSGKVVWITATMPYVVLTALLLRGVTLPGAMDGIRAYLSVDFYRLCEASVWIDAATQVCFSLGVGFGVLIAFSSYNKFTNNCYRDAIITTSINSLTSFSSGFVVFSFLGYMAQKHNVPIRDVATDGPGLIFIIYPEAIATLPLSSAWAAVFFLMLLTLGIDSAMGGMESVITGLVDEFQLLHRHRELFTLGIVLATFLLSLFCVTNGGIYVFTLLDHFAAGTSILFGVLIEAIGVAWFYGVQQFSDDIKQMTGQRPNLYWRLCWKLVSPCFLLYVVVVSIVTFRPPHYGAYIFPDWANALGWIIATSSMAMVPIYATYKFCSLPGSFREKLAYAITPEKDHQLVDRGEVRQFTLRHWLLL
Assay: Displacement of [3H]WIN-35428 from dopamine transporter (DAT) in Rat Caudate Putamen
Format: tissue-based
readoutKind: pKi
# reply with the number alone; pKi is -log10 of concentration in mol/L

# count of solved cases: 5
CN1C2CCC1C(CCC(=O)c1ccccc1)C(c1ccccc1)C2 (configuration not stated): 7.55
COC(=O)CCCCC1C(c2ccccc2)CC2CCC1N2C (configuration not stated): 7.52
CN1C2CCC1C(CCCc1ccccc1)C(c1ccccc1)C2 (configuration not stated): 7.80
COC(=O)CCC1C(c2ccccc2)CC2CCC1N2C (configuration not stated): 7.64
COC(=O)/C=C/CCC1C(c2ccccc2)CC2CCC1N2C (configuration not stated): 7.70

Prompt: Request the reported pKi associated with COC(=O)/C=C/C1C(c2ccccc2)CC2CCC1N2C (configuration not stated)
Response: 7.66

Prompt: Please answer likewise for CN1C2CCC1C(CCCO)C(c1ccccc1)C2 (configuration not stated)
Response: 7.96
